Values of IC50 for Receptor-type tyrosine-protein kinase FLT3 (Homo sapiens), collected from a number of published sources:

A selection of reference data follows.
{"columns": ["chemical string", "observation type", "result"],
 "data": [
  ["O=C1Nc2cc(NC(=O)c3cccn(-c4ccc(Cl)c(C(F)(F)F)c4)c3=O)ccc2/C1=C/c1ccc[nH]1", "IC50", "77.4 nM"],
  ["COC[C@H](C)Nc1ncc2c(-c3cnn(C(C)(C)c4nnco4)c3)cc([C@H]3CC[C@H](O)CC3)n2n1", "IC50", "1000 to 10000 nM"],
  ["COc1cccc2c(=O)c3c(sc12)c(NCCN)nc1ccccc13", "IC50", "< 51 nM"],
  ["CCc1nc2c(N)ncc(-c3ccc(N4CCC(N5CCC(C)(O)CC5)CC4)c(OC)c3)c2nc1NC1CCOCC1", "IC50", "≤ 10 nM"],
  ["COc1cc(-c2cnc(N)c3nc(C)c(NC4CCOCC4)nc23)ccc1N1CCC(N2CCN(C)CC2)CC1", "IC50", "10 to 100 nM"]
]}

// next entry
Incoming: // lookup IC50 for C[C@@H](C#N)NC(=O)c1ccc(-c2nc(Nc3cnn(C4CC4)c3)ncc2Cl)cc1
Outgoing: 6.73 nM
